Source listed as ChEMBL document CHEMBL3351906.

Test system: C6
assay_notes: Inhibition of cell proliferation of rat C6 cells assessed as cell viability at 100 uM after 72 hrs by sulforhodamine B assay
Assay type: functional
experimental_parameters: C6, 72 h, read-out: Activity
measure: viability at 100 µM (%)
Numbers only, in %.

Example entries and their recorded answers appear below.
# molecule, assayed_system, units_symbol, viability at 100 µM
records = [
    ("CC(C)=CCC[C@@](C)(O)[C@H]1CC[C@]2(C)[C@@H]1[C@H](O)C[C@@H]1[C@@]3(C)CC[C@H](O[C@@H]4O[C@H](CO)[C@@H](O)[C@H](O)[C@H]4O[C@@H]4O[C@H](CO)[C@@H](O)[C@H](O)[C@H]4O)C(C)(C)[C@@H]3CC[C@]12C", "C6", "%", 97.2),
    ("CC(C)=CCC[C@](C)(O[C@@H]1O[C@H](CO[C@@H]2O[C@H](CO)[C@@H](O)[C@H](O)[C@H]2O)[C@@H](O)[C@H](O)[C@H]1O)[C@H]1CC[C@]2(C)[C@@H]1[C@H](O)C[C@@H]1[C@@]3(C)CC[C@H](O[C@@H]4O[C@H](CO)[C@@H](O)[C@H](O)[C@H]4O)C(C)(C)[C@@H]3CC[C@]12C [GYPENOSIDE XVII]", "C6", "%", 80.8),
    ("CC(C)=CCC[C@](C)(O[C@@H]1O[C@H](CO)[C@@H](O)[C@H](O)[C@H]1O)[C@H]1CC[C@]2(C)[C@@H]1[C@H](O)C[C@@H]1[C@@]3(C)CC[C@H](O)C(C)(C)[C@@H]3[C@@H](O)C[C@]12C [GINSENOSIDE F1]", "C6", "%", 92),
    ("C[C@@H]1O[C@@H](O[C@H]2[C@H](OC(=O)[C@]34CCC(C)(C)C[C@H]3C3=CC[C@@H]5[C@@]6(C)CC[C@H](O[C@@H]7O[C@H](CO[C@@H]8OC[C@H](O)[C@H](O)[C@H]8O[C@@H]8OC[C@@H](O)[C@H](O)[C@H]8O)[C@@H](O)[C@H](O)[C@H]7O)C(C)(C)[C@@H]6CC[C@@]5(C)[C@]3(C)CC4)O[C@H](CO)[C@@H](O)[C@@H]2O)[C@H](O)[C@H](O)[C@H]1O[C@@H]1OC[C@@H](O)[C@H](O[C@@H]2OC[C@@H](O)[C@H](O)[C@H]2O)[C@H]1O", "C6", "%", 62.7),
    ("C/C=C(/C)C(=O)O[C@H]1[C@H](O)[C@]2(CO)[C@H](O)C[C@]3(C)C(=CC[C@@H]4[C@@]5(C)CC[C@H](O[C@@H]6O[C@H](C(=O)O)[C@@H](O[C@@H]7O[C@H](CO)[C@@H](O)[C@H](O)[C@H]7O)[C@H](O)[C@H]6O[C@@H]6O[C@H](CO)[C@@H](O)[C@H](O)[C@H]6O)[C@](C)(CO)[C@@H]5CC[C@]43C)[C@@H]2CC1(C)C", "C6", "%", 90.7),
]

Next molecule, viability at 100 µM to be filled in.
The reported value for CC1(C)CC[C@]2(C(=O)O)CC[C@]3(C)C(=CC[C@@H]4[C@@]5(C)CC[C@H](O[C@@H]6O[C@H](CO[C@@H]7OC[C@H](O)[C@H](O)[C@H]7O[C@@H]7OC[C@@H](O)[C@H](O)[C@H]7O)[C@@H](O)[C@H](O)[C@H]6O)C(C)(C)[C@@H]5CC[C@]43C)[C@@H]2C1 [PITHEDULOSIDE C] in terms of viability at 100 µM is 63
